target: human glucagon receptor (human, UniProt P47871 26-477); assay: cell-based or functional assay
Sequence (P47871 26-477): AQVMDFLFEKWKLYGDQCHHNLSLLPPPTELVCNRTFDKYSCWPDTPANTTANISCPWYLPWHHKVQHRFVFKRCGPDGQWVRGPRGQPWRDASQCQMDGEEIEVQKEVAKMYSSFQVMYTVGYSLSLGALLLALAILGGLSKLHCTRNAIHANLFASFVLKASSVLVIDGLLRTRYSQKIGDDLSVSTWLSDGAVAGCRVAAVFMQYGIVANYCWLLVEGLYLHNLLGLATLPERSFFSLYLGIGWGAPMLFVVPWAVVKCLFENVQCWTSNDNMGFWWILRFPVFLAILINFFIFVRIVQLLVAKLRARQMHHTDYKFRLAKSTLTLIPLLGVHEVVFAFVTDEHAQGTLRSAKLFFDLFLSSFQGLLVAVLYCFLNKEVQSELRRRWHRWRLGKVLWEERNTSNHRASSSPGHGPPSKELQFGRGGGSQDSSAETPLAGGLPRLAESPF
Numbered stars: 1 amine (or outer) side, 2 acyl side, 3 side chain; on linkers, the order of the positions; unused ones are H or OH. Square brackets hold non-standard residues; d marks the D form. Side chains are listed from the residue outwards. Ends that are not written are not given here. γGlu = O=C(O)[C@H](CCC(=O)[*:2])N[*:1]; X70 = not defined here; Aib = CC(C)(N)C(=O)O
Readout Kind: EC50 hGlucagon-R (cAMP) (nM)

> print(dat)
                                     binder  recorded.measurement
1  HXQGTFTSDLSKQKDEQAAQDFIEWLKAGGPSSGAPPPS (dSer at 2; K(γE-x53) at 14; C-terminal NH2) [SEQ ID NO: 34]                0.0067
2  H[Aib]QGTFTSDLSKQK([γGlu-X70])DEEAARLFIEWLKAGGPSSGAPPPS-NH2 (reading uncertain) [SEQ ID NO: 216]                0.0195
3  HXQGTFTSDLSKQKDSRRAQDFIEWLKNGGPSSGAPPPS (dSer at 2; K(γE-x60) at 14; C-terminal NH2) [SEQ ID NO: 89]                0.0137
4  HXQGTFTSDLSKQKDEQAAKLFIEWLKAXGPSSGAPPPS (Aib at 2; K(γE-x76) at 14; dAla at 29; C-terminal NH2) [SEQ ID NO: 201]                0.0296
5  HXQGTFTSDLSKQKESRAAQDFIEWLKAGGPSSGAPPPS (dSer at 2; K(βA-βA-x70) at 14; C-terminal NH2) [SEQ ID NO: 54]                 0.004
6  HXQGTFTSDLSKQKESQAAQDFIEWLKAGGPSSGAPPPS (dSer at 2; K(γE-x53) at 14; C-terminal NH2) [SEQ ID NO: 35]                0.0142

These entries and their values trace back to patent US20180185450A1.
